These entries and their values trace back to PubChem BioAssay (NCI).

- Test system: UACC-257 melanoma
- TEST PROTOCOL: NCI tumour cell line growth inhibition, 48 h
ASSAY READOUT: TGI (µM)

SMILES TEXT: COc1ccc(Cn2c(=O)c(OC)c(C)c3cc4ccccc4cc32)cc1
ASSAY READOUT: TGI
COMPARISON OPERATOR: =
VALUE REPORTED: 9.02

SMILES TEXT: COc1ccc2c(c1)C(=O)CCc1cc(OC)c(OC)c(OC)c1-2
ASSAY READOUT: TGI
COMPARISON OPERATOR: >
VALUE REPORTED: 100

SMILES TEXT: COc1ccc2c(c1)/C(=C\c1c(Cl)[nH]c3cc(C)c(OC)cc13)C(=O)N2
ASSAY READOUT: TGI
COMPARISON OPERATOR: =
VALUE REPORTED: 20.6

SMILES TEXT: O=C1COc2cc(NC(=S)Nc3ccccc3)ccc2N1
ASSAY READOUT: TGI
COMPARISON OPERATOR: >
VALUE REPORTED: 100

###

Measured TGI of individual entries
- System: DU-145 prostate
- TEST PROTOCOL: NCI tumour cell line growth inhibition, 48 h

SMILES TEXT: C[C@@H](C(=O)O)N1C(c2ccco2)=C(/C(C=O)=C\c2ccco2)C(=O)/C1=C\c1ccco1
TGI: > 100 µM
--
SMILES TEXT: Cc1nnc(-c2ccc(C)c(-c3ccc(C(=O)Nc4cccc(C#N)c4)cc3)c2)o1
TGI: > 25 µM
--
SMILES TEXT: O=C(O)c1ccc(CN2CCC(CN[C@@H]3C[C@H]3c3ccccc3)CC2)cc1
TGI: > 100 µM

###

Items are presented alongside their recorded TGI.
- Tested on: OVCAR-8 ovarian
- TEST PROTOCOL: NCI tumour cell line growth inhibition, 48 h

COMPOUND: COc1cc(NCC(C#N)C#N)ccc1N=Nc1ccc(Cl)cc1
TGI: > 100 µM

COMPOUND: CCN(CC)CCNC(Cc1ccccc1)c1ccc(OCc2ccccc2)cc1 (stereo not given)
TGI: 24.4 µM

COMPOUND: CC(=O)c1ccc(NC(=O)/C(CC(=O)c2sc(-c3cccnc3)nc2C)=N/NC(N)=O)cc1
TGI: > 100 µM

COMPOUND: OCC12C=CC(C1)c1ccccc12 (stereo not given)
TGI: > 100 µM

COMPOUND: Cc1n(CC(C)C)c2c([n+]1C)C(=O)c1ccccc1C2=O
TGI: 0.937 µM

COMPOUND: CCCCCCCC(CC(=O)NC(CO)C(=O)NC(CO)CC(C)C)OC(=O)CC(CCCCCCC)OC(=O)CC(CCCCCCC)OC1OC(C)C(O)C(OC2OC(C)C(OC(C)=O)C(O)C2O)C1O (stereo not given)
TGI: 23.3 µM

COMPOUND: O=C1NC(=S)N/C1=C\c1cccs1
TGI: > 100 µM

COMPOUND: Cc1ccc(S(=O)(=O)N/N=C2\CCCCC23CCC(=O)NC3)cc1 (stereo not given)
TGI: > 100 µM

COMPOUND: ONC1=Nc2cc(Cl)ccc2C(=S)N2CSCC12 (stereo not given)
TGI: > 100 µM

COMPOUND: CNC(=O)OCc1c(COC(=O)NC)c(-c2ccc(-c3ccccc3)cc2)n(C)c1C
TGI: 10.4 µM

COMPOUND: O=C1/C(=C\c2ccc([N+](=O)[O-])cc2)N(S(=O)(=O)c2ccccc2)c2ncccc21
TGI: 70.2 µM

COMPOUND: CC1(C)N/C(=C\[N+](=O)[O-])C(C)(C)N1O
TGI: > 10 µM

COMPOUND: CC1=C2C(O)C(C(C)C(=O)N(C)C)CCC2(C)C=CC1=O (stereo not given)
TGI: > 100 µM

COMPOUND: O=C1C2=Cc3ccccc3OC2(O)Oc2cc3ccccc3cc21 (stereo not given)
TGI: > 100 µM

COMPOUND: O=c1oc2ccccc2c(Nc2ccc3c(c2)Sc2ccccc2O3)c1[N+](=O)[O-]
TGI: > 100 µM

COMPOUND: COc1ccc2nc3cc(Cl)ccc3c(Sc3ccc([N+](=O)[O-])cc3C)c2c1
TGI: > 100 µM

COMPOUND: COC(=O)c1csc([C@@H](OC(=O)[C@H](C)[C@H](CCCC(C)(Cl)Cl)OC(=O)c2csc([C@H](O)CO)n2)C(C)C)n1
TGI: 22.4 µM

COMPOUND: COc1cc(C=O)c(-c2c(C=O)ccc3c2OCO3)c(OC)c1OC
TGI: > 100 µM

COMPOUND: COc1cc2c(cc1O)c(O)cc1c3cc(OC)c(OC)cc3c[n+](C)c21
TGI: > 79 µM

COMPOUND: CC/C=C\C[C@H]1CC=C2C(=O)C=C[C@@H]2CC=CCCCC(=O)O[C@@H](CCCCC)CC=C2C(=O)C=C[C@@H]2CC=CCCCC(=O)O[C@@H](CCCCC)CC=C2C(=O)C=C[C@@H]2CC=CCCCC(=O)O[C@@H](CCCCC)CC=C2C(=O)C=C[C@@H]2CC=CCCCC(=O)O1
TGI: > 7.9 µM

COMPOUND: CCN1CCCc2cc3c(C(F)(F)F)cc(=O)oc3cc21
TGI: > 100 µM

COMPOUND: O=C(/C=C/c1ccc(O)c(O)c1)OCC(OC(=O)/C=C/c1ccc(O)c(O)c1)C(=O)O (stereo not given)
TGI: > 100 µM

COMPOUND: CC12C=CC(C)(C3C(=O)C4C(C(=O)C31)C1(C)C=CC4(C)S1=O)S2=O (stereo not given)
TGI: > 100 µM

COMPOUND: Cc1cc(Cl)ccc1OCC(=O)Nc1nc2c(Cl)cccc2s1
TGI: 29.4 µM

COMPOUND: Nc1ncnc2c1ncn2C1C=C(CO)C(O)C1O (stereo not given)
TGI: > 100 µM

COMPOUND: O=[N+]([O-])c1ccc(CSc2nncc3[nH]cnc23)cc1
TGI: > 100 µM

COMPOUND: Cc1ccc(S(=O)(=O)OC2CC=CC2)cc1
TGI: > 100 µM

COMPOUND: Clc1ccc(CCN(CCc2ccc(Cl)c(Cl)c2)CCN2CCCC2)cc1Cl
TGI: 3.06 µM

COMPOUND: COc1ccc(NC(=O)CC/C(CC(=O)c2ccco2)=N/NC(=O)C(N)=O)cc1
TGI: > 100 µM

COMPOUND: Nc1cc([N+](=O)[O-])ccc1C(=O)N1CCC[C@H]1CO
TGI: > 100 µM
